Every entry's value here was drawn from PubChem BioAssay (EPA / NIEHS).

- Read-out: ABC Transporter (ABCC2), ABCC2 (gene 1244)
- PROTOCOL TEXT: LTEA_HepaRG_ABCC2: Life Technologies and Expression Analysis (LTEA) Assay for ABC Transporter (ABCC2) using HepaRG (AID 2283464)
- RECORDED CONDITIONS: mRNA level, 48 h; actives raise or lower the signal
Active and inactive are the calls of the source. Rule for the calls: active = hit-call score of the fitted dose curve at least 0.9, where 1 is the maximum; inactive = score below 0.9.
Select the matching outcome among active, inactive

// known answers, use as guide
COC(=O)CCCC(=O)OC = inactive
CCCC[C@H]1CN(CC2CCOCC2)C(=O)OC12CCN(C1(C)CCN(C(=O)c3c(C)ncnc3C)CC1)CC2 = inactive
O=C1O[C@H]([C@H](O)CO)C(O)=C1O = inactive
Cc1ccc(C(C)(C)C)c(O)c1 = inactive
Cc1occc(=O)c1O = inactive

Which outcome was entered for the compound CC(C)(C)c1ccccc1 in this test?
inactive

Outcome logged for CC(N)=O in this assay:
inactive

Outcome logged for CCCCCCCCCCCCCCOS(=O)(=O)O in this assay:
inactive

Please state the recorded outcome for this compound: NCCOCCOCCN
inactive

Would you mind telling me which call this test gave CC(C)COC(=O)CCCCC(=O)OCC(C)C ?
inactive

Could you kindly confirm the outcome this assay logged for CN(C)C(=O)NC1(c2ccccc2)CCN(CCC[C@]2(c3ccc(Cl)c(Cl)c3)CCCN(C(=O)c3ccccc3)C2)CC1 ?
active

// return assay outcome for Nc1nc(=S)c2[nH]cnc2[nH]1
active

Outcome? CC(=O)[C@@]1(O)CC[C@H]2[C@@H]3CCC4=CC(=O)CC[C@]4(C)[C@H]3CC[C@@]21C
inactive

---

- Read-out: Interleukin-8 (IL8), CXCL8 (gene 3576)
- PROTOCOL TEXT: BSK_LPS_IL8: BioMAP Diversity Plus: LPS Assay for Interleukin-8 (IL8) Biomarker Activity (AID 2283078)
- RECORDED CONDITIONS: primary human HUVEC with PBMC; actives raise or lower the signal
- Experimental: BSK_LPS is a cell-based, multiplexed-readout assay that uses umbilical vein endothelium and peripheral blood mononuclear cells, a human vascular primary cell co-culture, with measurements taken at 24 hours after chemical dosing in a 96-well plate.BSK_LPS_IL8 is an assay component measured in the BSK_LPS assay. It measures IL-8 antibody related to regulation of gene expression using ELISA technology.Data from the assay component BSK_LPS_IL8 was analyzed into 1 assay endpoint. […]
Calls of active or inactive are those of the source. How the source made its calls: active means hit-call score of the fitted dose curve at least 0.9, where 1 is the maximum; inactive means score below 0.9.
QUANTITY: AC50

CC(N)=O = inactive
O=C(O)CN(CC(=O)O)CC(=O)O = inactive
c1ccc2occc2c1 = inactive
NCCOCCOCCN = inactive
CCN(CC)CCOc1ccc(C(=C(Cl)c2ccccc2)c2ccccc2)cc1 = 11.3 µM (active)

Hi! Can you tell me AC50 for each of these compounds?
1. CCCCCCCCCCCCCCCCO
2. Cc1ccc(C(C)(C)C)c(O)c1
3. C/C=C/C=C/C(=O)O
4. CCCCCCCCCCCCCCOS(=O)(=O)O
5. O=C(N[C@@H](c1ccccc1)[C@@H]1CCCCN1)c1cccc(C(F)(F)F)c1Cl

inactive
inactive
inactive
inactive
17.9 µM (active)

Parameter requested: AC50. Apply to each item below.
1. COC(=O)CCC(=O)OC
2. CC(C)c1cccc(C(C)C)c1NC(=O)NS(=O)(=O)c1cc(C(C)(C)O)co1
3. Oc1ccc(O)cc1

1: inactive; 2: 0.152 µM (active); 3: 30.7 µM (active)

Fill in AC50 for each of the 2 compounds listed.
1. C=CCCCCCCCCCCCC
2. O=C(Oc1ccccc1)c1cccc(C(=O)Oc2ccccc2)c1

1. inactive
2. inactive

// for each compound below, give its AC50
1. Cc1c(C)c2c(c(C)c1O)CCC(C)(COc1ccc(CC3SC(=O)NC3=O)cc1)O2 (stereo not drawn)
2. CC1(C)C(=O)NC(=O)N1CO
3. CC(C)(O)c1ccc(CNC(=O)c2cccnc2Oc2ccc(F)cc2)cc1

["32.1 µM (active)", "inactive", "inactive"]

Please give AC50, item by item, for the list that follows.
1. CC(=O)OCC(COC(C)=O)OC(C)=O
2. O=C1c2c(O)cccc2Cc2cccc(O)c21

1: inactive; 2: inactive

Please state AC50 for every compound in the list that follows.
1. C#CC(O)C(CC)CCCC (stereo not drawn)
2. CCCC(=O)O

1: inactive; 2: inactive

List reported AC50 for each of these compounds:
1. CCCCC(CC)COC(=O)CCCCCCCC(=O)OCC(CC)CCCC (stereo not drawn)
2. CC(=O)O
3. CC(=O)OC1CC(C)OC(C)O1 (stereo not drawn)

1: inactive; 2: inactive; 3: inactive

// each compound listed below needs its AC50
1. CC(C)NCC(O)c1ccc(O)c(O)c1 (stereo not drawn)
2. CS(=O)(=O)c1ccc([C@@H](C[C@H]2CCC(=O)C2)C(=O)Nc2cnccn2)cc1Cl
3. O=C(O)c1cccnc1

1: inactive; 2: inactive; 3: inactive

---

- Read-out: ABC Transporter (ABCB11), ABCB11 (gene 8647)
- PROTOCOL TEXT: LTEA_HepaRG_ABCB11: Life Technologies and Expression Analysis (LTEA) Assay for ABC Transporter (ABCB11) using HepaRG (AID 2283463)
- RECORDED CONDITIONS: mRNA level, 48 h; actives raise or lower the signal
The source made the active and inactive calls. The calls were made as follows: active = hit-call score of the fitted dose curve at least 0.9, where 1 is the maximum; inactive = score below 0.9.
Give one outcome, nothing more. List: active, inactive

CC(C)COC(=O)CCCCC(=O)OCC(C)C = inactive

Query: recorded result category for C/C=C/C=C/C(=O)O in this test
inactive

---

- PROTOCOL TEXT: APR_HepG2_MitoMembPot_72hr: Apredica 72-hour HepG2 Assay for Mitochondrial Membrane Potential (AID 2282917)
- RECORDED CONDITIONS: imaging, actives raise or lower the signal
The source made the active and inactive calls. How the source made its calls: active means hit-call score of the fitted dose curve at least 0.9, where 1 is the maximum; inactive means score below 0.9.
Thanks in advance; please answer with one of these: 1 (yes) for active, 0 (no) for inactive

Reference set, count: 5
Oc1ccc(O)cc1 = 0 (no)
CC(C)(C)c1ccccc1 = 0 (no)
C=CCc1ccc(OC)c(OC)c1 = 0 (no)
CCCCOC(=O)CCCCC(=O)OCCCC = 0 (no)
O=C1O[C@H]([C@H](O)CO)C(O)=C1O = 0 (no)

What classification did CCCCCCCCCC[N+](C)(C)[O-] end up with in this test?
1 (yes)

// return assay outcome for NC1CCCCC1
0 (no)

// param item: CCc1cc(C2=C(C(=O)O)N(c3ccccc3C(F)(F)F)S(=O)(=O)c3ccccc32)cc2c1OCO2 ; yields the recorded call
0 (no)

Can you look up the reported call for CC(=O)OCC(COC(C)=O)OC(C)=O for me?
0 (no)

For this molecule, state the assay outcome: N[C@@H](Cc1c[nH]c2ccccc12)C(=O)O
0 (no)

Would you mind telling me which call this test gave S=c1[nH]c2ccccc2s1 ?
1 (yes)

Hey, what did the test say about O=C(O)c1[nH]n(-c2ccc(S(=O)(=O)O)cc2)c(=O)c1N=Nc1ccc(S(=O)(=O)O)cc1 ?
0 (no)

Which outcome was assigned to CC(C)c1cccc(C(C)C)c1NC(=O)NS(=O)(=O)c1cc(C(C)(C)O)co1 in this test?
0 (no)

I would be grateful if you could indicate the recorded call for CCCCC(CC)COC(=O)CCCCCCCC(=O)OCC(CC)CCCC (centres undefined) .
0 (no)

---

- Read-out: Matrix Metallopeptidase 1 (MMP1), MMP1 (gene 4312)
- PROTOCOL TEXT: BSK_hDFCGF_MMP1: BioMAP Diversity Plus: hDFCGF Assay for Matrix Metallopeptidase 1 (MMP1) Biomarker Activity (AID 2283064)
- RECORDED CONDITIONS: primary human foreskin fibroblasts; actives raise or lower the signal
The source made the active and inactive calls. Rule for the calls: active = hit-call score of the fitted dose curve at least 0.9, where 1 is the maximum; inactive = score below 0.9.
QUANTITY: AC50

CCOCCOCCO = inactive
CCc1nc(N)nc(N)c1-c1ccc(Cl)cc1 = inactive
OCC(CO)n1cnc(-c2ccc(F)cc2)c1-c1ccnc(Oc2ccccc2)n1 = 909 nM (active)

---

- PROTOCOL TEXT: IUF_NPC2-5_cytotoxicity_72hr: Cytotoxicity Assessment at 72 hours in the Leibniz Research Institute for Environmental Medicine (IUF) Neural Progenitor Cell Migration and Differentiation Assay for Cytotoxicity (NPC2-5) (AID 2284306);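 note: LDH release into supernatant measured by resorufin fluorescence marking membrane damage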
Records with an inconclusive call do not appear. Activity calls are given as the source filed them. Rule for the calls: active = hit-call score of the fitted dose curve at least 0.9, where 1 is the maximum; inconclusive = response in the unintended direction; inactive = score below 0.9.
Please answer using one outcome listed in active, inactive

CN(C)CCCN1c2ccccc2Sc2ccc(Cl)cc21 = active
CC(=O)CC(c1ccccc1)c1c(O)c2ccccc2oc1=O (centres undefined) = inactive
O=C1NC(=O)C(c2ccccc2)(c2ccccc2)N1 = inactive

# outcome recorded in this test, key = OCC(O)CO
inactive

---

- Read-out: Cytochrome P450 3A7 (Homo sapiens)
- PROTOCOL TEXT: LTEA_HepaRG_CYP3A7: Life Technologies and Expression Analysis (LTEA) Assay for CYP3A7 using HepaRG (AID 2283492)
- RECORDED CONDITIONS: mRNA level, 48 h; actives raise or lower the signal
Active and inactive are the calls of the source. How the source made its calls: active means hit-call score of the fitted dose curve at least 0.9, where 1 is the maximum; inactive means score below 0.9.
Pick one and only one: TRUE (active), FALSE (inactive)

// known answers, use as guide
CCCCCCCC(=O)OC = FALSE
Cc1occc(=O)c1O = FALSE
CCCCc1nc2cccnc2n1Cc1ccc(-c2ccccc2-c2nnn[nH]2)cc1 = TRUE

Assay result, entry CCc1cc(C2=C(C(=O)O)N(c3ccccc3C(F)(F)F)S(=O)(=O)c3ccccc32)cc2c1OCO2 — outcome?
TRUE

Called result for CC(C)OC(=O)C(C)(C)Oc1ccc(C(=O)c2ccc(Cl)cc2)cc1
FALSE

Just curious, what result did NC(=Nc1ccccc1)Nc1ccccc1 get here?
FALSE

What did this assay record as the result for CC(=O)OC1CC(C)OC(C)O1 (configuration not stated) ?
FALSE

Please share the test call associated with CC1(C)C(=O)NC(=O)N1CO .
FALSE
